target: T1, human Her2 (ECD)-Fc protein (human, UniProt P04626 23-652); test: PE-ELISA, A405 of antigen well over control well
T1 construct: extracellular domain; Made in HEK293F cells; also called hHer2 (ECD)-Fc antigen; Her2 (ECD)-Fc antigen; not shown: TEV restriction site at the C-terminal of hHer2 (ECD); IgG1 Fc of the pFUSE-IgG1 vector
Field 'label' (enum: satisfied / not satisfied). Set to satisfied when Ratio(+/-) is strictly under 20; else not satisfied.

binder="Nanobody No. 38 (VHH, also called 38; not shown: tags (HA, His) implied by anti-HA detection and nickel column) VHH: QVQLQESGGGSVQAGGSLRLSCAASGFTYTGYCMGWFRQAPGKEREGVATVDSDGDTSYADSVKGRFTISKDNAKNTLYLQMNSLKPEDTAMYYCAADFSRWHLCSTSLATLGYWGQGTQVTVSS" group="not satisfied"
binder="Nanobody No. 10 (VHH, camel VHH from pMECs phage display vector; also called Antibody no; 10; not shown: tags (HA, His) implied by anti-HA detection and nickel column) VHH: QVQLQESGGGSVQAGETLKLSCTASGFTFDDSTMAWYRQAPGNECKLVSTISSDGSTYYADSVKGRFTISQDNAKNTVYLQMNSLKPEDTAVYYCAADDQNYELGTCEALDYWGRGTQVTVSS" group="not satisfied"
binder="Nanobody No. 24 (VHH, also called 24; not shown: tags (HA, His) implied by anti-HA detection and nickel column) VHH: QVQLQESGGGSVQAGETLRLSCTASGFTFDDSDSDMGWYRQAPGNECELVSSISSDGSTYYADSVKGRFTISQDNAKNTVYLQMNSLKPEDTAVYYCAAINSGYELGTCESLDYWGRGTQVTVSS" group="not satisfied"

Pending binder:
Qu. Problem: For the binder Nanobody No. 2 (VHH, not shown: tags (HA, His) implied by anti-HA detection and nickel column) VHH: QVQLQESGGGSVQAGETLRLSCTASGFTFDDSDMGWYRQAPGNECELVSTISSDGSTYYADSVKGRFTISQDNAKNAVYLQMNSLKPEDTAVYYCAAHPLHYELGTCAALDYWGRGTQVTVSS , is Ratio(+/-) under 20?
Ans. satisfied
